Kindly state phosphorylation enrichment for each of the entries shown.
# system.name: Fyn (UniProt P06241)
# Sequence (P06241 whole entry, looked up): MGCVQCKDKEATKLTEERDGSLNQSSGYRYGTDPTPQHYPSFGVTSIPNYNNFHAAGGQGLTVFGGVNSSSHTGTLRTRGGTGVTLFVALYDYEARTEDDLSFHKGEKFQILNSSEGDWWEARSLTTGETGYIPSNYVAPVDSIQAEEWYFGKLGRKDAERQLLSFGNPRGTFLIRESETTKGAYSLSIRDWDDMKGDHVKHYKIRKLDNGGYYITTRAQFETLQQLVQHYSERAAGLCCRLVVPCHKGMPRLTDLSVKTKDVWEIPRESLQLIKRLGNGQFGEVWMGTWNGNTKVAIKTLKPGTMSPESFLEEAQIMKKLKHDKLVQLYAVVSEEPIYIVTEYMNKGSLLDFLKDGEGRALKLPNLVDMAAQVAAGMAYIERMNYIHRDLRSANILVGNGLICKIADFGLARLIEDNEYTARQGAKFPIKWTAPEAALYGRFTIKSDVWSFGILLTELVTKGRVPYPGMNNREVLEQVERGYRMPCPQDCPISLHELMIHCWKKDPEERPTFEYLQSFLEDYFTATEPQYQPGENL
# measurement.notes: phosphorylation enrichment, bacterial display (enrichment ratio); higher = better substrate or ligand; peptides without Tyr show the background;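 note: 11-residue human phosphosite peptides and single-mutation variants displayed on the E. coli surface, counted by deep sequencing, each peptide's frequency after selection divided by its frequency in the unselected input library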;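 note: frequency after pTyr selection over input frequency; kinase dosed for 20-30% of maximal phosphorylation in three min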
Give bare numbers.

Some entries whose results are on file:
Prompt line: I am curious: what phosphorylation enrichment value has been reported for TLLAFYMGNFS [GLB1_Y552_P549L] ?
Response line: 0.408

Prompt line: Same for DGDTRYSTFSE [TKTL1_Y318]
Response line: 0.467

Prompt line: Now the same for DENWFYTRAAS [RPS19_Y54]
Response line: 0.454

Prompt line: // repeat for KEDSVYGSQSV [NFKB2_Y868_A867V] and report
Response line: 1.43

Prompt line: Queued: SSNTEYLSASD [INSR_Y999_P997T]
Response line: 0.52

Prompt line: Same lookup for QGIFGYHHHMQ [UFSP2_Y287_Y290H_YF] , please.
Response line: 0.395

Prompt line: What do you get for LASLIYNFILF [AQP6_Y231_V234I] ?
Response line: 13.3

Prompt line: Same lookup for IWIFHYAKGQP [MPZ_Y82_S78W] , please.
Response line: 0.49

Prompt line: # repeat for CSEETYRLMLQ [RET_Y981_M980T]
Response line: 0.586

Prompt line: Repeat with AQAERYDDMAA [YWHAG_Y20_E15A]
Response line: 0.478

// each listed sequence needs a value for phosphorylation enrichment
1. KNKELYSDPFD [PDE10A_Y300_L303P]
2. GPKFGYDEIDN [ACOX1_Y232]
3. SDVDLYQVRTA [PSMD9_Y70]
4. SLLLSYYLIKW [NUP160_Y773_P768S]

Response line:
1: 0.443; 2: 0.406; 3: 1.41; 4: 0.456

Please supply phosphorylation enrichment for each of the following items, keeping them in order.
1. FTAVGYHKHIT [NOMO1_Y1137]
2. EWQQTYTFDSG [JUP_Y20_YF]
3. RVAFQYGVTDL [MYBPC3_Y340_I336V]
4. RGYRQDAYDGK [HLA-A_Y140]
5. VQNIVYHTASI [CYP39A1_Y102_R103H]
6. ARMTNYGLPRY [TSPAN12_Y138]

Response line:
[0.432, 3.03, 0.49, 0.671, 0.401, 0.619]

Parameter requested: phosphorylation enrichment. Apply to each item below.
1. EMQAAYQKVVA [HBD_Y131_Q126E]
2. QKINKYLTVPA [SLC9A1_Y683_N682K]
3. KSIDEYLKLVG [RASAL2_Y381_E379D]
4. LSERGYSFVTT [ACTA2_Y200_T196S]
5. GRVYVYRLSEQ [ITGAE_Y551]
6. DFPGNYSGFDD [POLR1C_Y33_YF]
7. SLDLSYFHTSS [EMD_Y181_P183H_YF]

Response line:
0.472
0.461
0.406
0.81
0.568
0.55
0.464

Parameter requested: phosphorylation enrichment. Apply to each item below.
1. TVLWQYTGTRP [UGT1A1_Y337_R336Q]
2. KDLPNYNWKSF [KISS1_Y112_N115K]

Response line:
1. 0.398
2. 0.438
